assay: LogP; assay type: physicochemical
READOUT_KIND: logP

[[record]]
molecule = "O=C(OCCOCCOC(=O)N(Cc1cccs1)Cc1cccs1)N(Cc1cccs1)Cc1cccs1 [Form 7HP577]"
readout_kind = "logP"
result_value = 6.58

[[record]]
molecule = "O=C(OCCOCCOCCOC(=O)N(Cc1cccs1)Cc1cccs1)N(Cc1cccs1)Cc1cccs1 [Form 7HP349]"
readout_kind = "logP"
result_value = 6.22


* * *

assay: Human SAD PK; assay type: in vivo; conditions: human, plasma, oral, 200 mg, cohort 3, 200 mg, mean ± SD, n = 6, read-out: AUClast
READOUT_KIND: AUC(0-t) (ng·h/mL)

[[record]]
compound = "O=C(OCCOCCOCCOC(=O)N(Cc1cccs1)Cc1cccs1)N(Cc1cccs1)Cc1cccs1 [Form 7HP349]"
readout_kind = "AUC(0-t)"
result_value = 755


* * *

experiment: Human SAD PK; format: in vivo; details: human, plasma, oral, 50 mg, cohort 1, 50 mg, mean ± SD, n = 6, read-out: AUC0-10 h
READOUT_KIND: AUC(0-t)

[[record]]
compound = "O=C(OCCOCCOCCOC(=O)N(Cc1cccs1)Cc1cccs1)N(Cc1cccs1)Cc1cccs1 [Form 7HP349]"
result_value = "12.5 ng·h/mL"

